assay: Pharmacokinetic study in cynomolgus monkeys after oral (nasogastric) gavage, sublingual and intravenous administration; assay type: in vivo; conditions: cynomolgus monkey, plasma, other: sublingual, 5 mg/kg, Plasma Bumetanide Dibenzylamide concentration, Median, monkey, SL, dose column 5 mg/kg (title 30 mg/kg), Fourth Formulation (Form 2), 1.0 h, N=4
ATTRIBUTE MEASURED: concentration at 1 h (ng/mL)
A number alone suffices; assume ng/mL.

The measured concentration at 1 h associated with CCCCNc1cc(C(=O)N(Cc2ccccc2)Cc2ccccc2)cc(S(N)(=O)=O)c1Oc1ccccc1 [Bumetanide Dibenzylamide] reads 0

###

experiment: Crossover pharmacokinetic study of Bumetanide Dibenzylamide formulations (IN, SL, IM, PO, SC, IR) in Beagle dogs, plasma LC-MS/MS; type: in vivo; conditions: both sexes, Beagle, dog, plasma, 30 mg, IR
ATTRIBUTE MEASURED: AUC(0-inf) (ng·h/mL)
Write the value in ng·h/mL as a bare number.

// AUC(0-inf) value for CCCCNc1cc(C(=O)N(Cc2ccccc2)Cc2ccccc2)cc(S(N)(=O)=O)c1Oc1ccccc1 [Bumetanide Dibenzylamide] : 55.1
